Reported values of IC50 for individual entries
# TESTED ON: orexin type 2 receptor (hOX2R) (Homo sapiens)
# Sequence (O43614 whole entry): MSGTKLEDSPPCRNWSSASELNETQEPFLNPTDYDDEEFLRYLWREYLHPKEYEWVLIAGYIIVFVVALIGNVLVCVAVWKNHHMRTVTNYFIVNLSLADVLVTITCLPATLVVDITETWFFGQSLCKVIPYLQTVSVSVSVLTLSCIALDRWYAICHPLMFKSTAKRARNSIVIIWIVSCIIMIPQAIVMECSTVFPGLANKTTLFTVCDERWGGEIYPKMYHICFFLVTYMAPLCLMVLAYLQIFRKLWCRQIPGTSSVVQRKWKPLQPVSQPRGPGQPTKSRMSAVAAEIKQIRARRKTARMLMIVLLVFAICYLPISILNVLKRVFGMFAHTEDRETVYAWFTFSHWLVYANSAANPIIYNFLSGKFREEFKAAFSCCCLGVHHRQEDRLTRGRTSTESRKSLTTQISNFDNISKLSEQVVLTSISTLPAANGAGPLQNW
# ASSAY OVERVIEW: Orexin receptor antagonistic activity, intracellular Ca2+ fluorescence (FDSS) in CHO cells expressing hOX2R
# PARTICULARS: CHO cells forced to express hOX2R; orexin-A analogue peptide ligand 3 nM; Fluo-4 maximum fluorescence; read-out: IC50 value OX2R
Response body: numeric value in nM, unit text excluded.

Reference set, count: 3
{"CHEMICAL STRUCTURE": "CCN(CCn1ccc(-c2ccc(F)cc2)n1)C(=O)c1cc(C)ccc1-n1nccn1", "TESTED ON": "orexin type 2 receptor (hOX2R) (Homo sapiens)", "MEASURED METRIC": "IC50", "RECORDED NUMBER": 2.5}
{"CHEMICAL STRUCTURE": "Cc1ccc(-n2nccn2)c(C(=O)N(C)CCn2ccc(-c3ccc(F)cn3)n2)c1", "TESTED ON": "orexin type 2 receptor (hOX2R) (Homo sapiens)", "MEASURED METRIC": "IC50", "RECORDED NUMBER": 22.8}
{"CHEMICAL STRUCTURE": "CCN(CCn1ccc(-c2cc(C(F)(F)F)ccn2)n1)C(=O)c1cc(F)ccc1-c1ncccn1", "TESTED ON": "orexin type 2 receptor (hOX2R) (Homo sapiens)", "MEASURED METRIC": "IC50", "RECORDED NUMBER": 1130}

Reported IC50, compound CCN(CCn1ccc(-c2ccc(F)cn2)n1)C(=O)c1cc(C)ccc1-c1ccccn1 : ____
11.7

Fill blank: measured IC50 of the compound CCN(CCn1cc(-c2ccc(Cl)cn2)cn1)C(=O)c1cc(C)ccc1-n1nccn1 is ____.
52.6

Quick one: IC50 for CCN(CCn1ccc(-c2ccc(F)cn2)n1)C(=O)c1cc(F)ccc1-c1ncccn1 ?
7.6

Consider the compound shown here: CCN(CCn1ccc(-c2ccc(F)cn2)n1)C(=O)c1cc(C)ccc1-c1cccnc1 What is its recorded IC50?
58.9

What does the data say about its IC50? Entry: Cc1ccc(-n2nccn2)c(C(=O)N(CCn2cc(-c3ccc(F)cn3)cn2)CC2CC2)c1
38.7

* * *

# pIC50 per entry
# TESTED ON: human orexin type 1 receptor (hOX1R) (Homo sapiens)
# ASSAY OVERVIEW: Orexin receptor antagonistic activity, intracellular Ca2+ fluorescence (FDSS) in CHO cells expressing hOX1R
# PARTICULARS: CHO cells forced to express hOX1R; orexin-A analogue peptide ligand 300 pM; Fluo-4 maximum fluorescence; read-out: IC50 value OX1R
Note on units: pIC50 is unitless, being -log10 of a concentration expressed in mol/L.

{"MOLECULE": "Cc1ccc(-n2nccn2)c(C(=O)NCCn2ccc(-c3ccc(F)cn3)n2)c1 [Example 16]", "pIC50": 6.94}

GET /values?readout=pIC50&system=human orexin type 1 receptor (hOX1R) (Homo sapiens)&item= CCN(CCn1ccc(-c2ccc(F)cn2)n1)C(=O)c1ccc(F)cc1-n1nccn1 [Example 44]
7.76

* * *

# maps each entry to its IC50
# TESTED ON: UniProt O43614
# ASSAY OVERVIEW: Orexin receptor antagonistic activity, intracellular Ca2+ fluorescence (FDSS) in CHO cells expressing hOX2R
# PARTICULARS: CHO cells forced to express hOX2R; orexin-A analogue peptide ligand 3 nM; Fluo-4 maximum fluorescence; read-out: IC50 value OX2R
Your answer should be a plain number; it is taken to be in µM.

{"COMPOUND": "CCN(CCn1ccc(-c2cccc(C(F)(F)F)n2)n1)C(=O)c1cc(F)ccc1-c1ncccn1 [Example 57]", "TESTED ON": "UniProt O43614", "MEASURED METRIC": "IC50", "RECORDED NUMBER": 0.0995}

# IC50 lookup, item CCN(CCn1ccc(-c2ccc(F)cn2)n1)C(=O)c1ccccc1-c1ncccn1 [Example 34]
0.0089

Find the recorded IC50 belonging to CCN(CCn1cc(-c2ccc(F)cc2)cn1)C(=O)c1cc(C)ccc1-n1nccn1 [Example 7] and report it.
0.0063

What does the record list as IC50 for CCN(CCn1ccc(-c2ccc(F)cn2)n1)C(=O)c1c(F)cccc1-n1nccn1 [Example 45] ?
0.0469

* * *

# TESTED ON: human orexin type 1 receptor (hOX1R) (Homo sapiens, UniProt O43613)
# Sequence (O43613 1-425): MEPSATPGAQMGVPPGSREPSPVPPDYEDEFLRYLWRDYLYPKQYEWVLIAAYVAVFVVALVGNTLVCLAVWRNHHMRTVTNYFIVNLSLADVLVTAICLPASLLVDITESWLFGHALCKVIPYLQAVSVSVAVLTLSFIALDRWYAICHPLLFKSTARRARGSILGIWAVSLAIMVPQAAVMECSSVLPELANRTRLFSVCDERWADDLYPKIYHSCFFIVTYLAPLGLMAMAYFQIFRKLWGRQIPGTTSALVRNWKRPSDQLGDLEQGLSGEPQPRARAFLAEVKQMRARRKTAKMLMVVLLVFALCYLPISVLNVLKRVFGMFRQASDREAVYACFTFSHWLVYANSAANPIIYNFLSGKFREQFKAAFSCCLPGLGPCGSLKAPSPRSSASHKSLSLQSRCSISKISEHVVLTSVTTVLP
# ASSAY OVERVIEW: Orexin receptor antagonistic activity, intracellular Ca2+ fluorescence (FDSS) in CHO cells expressing hOX1R
# PARTICULARS: CHO cells forced to express hOX1R; orexin-A analogue peptide ligand 300 pM; Fluo-4 maximum fluorescence; read-out: IC50 value OX1R
Recorded IC50, one value per entry.
Hey, just the number and the unit after it is fine.

Some solved cases for reference:
{"CHEMICAL STRUCTURE": "CCN(CCn1ccc(-c2ccc(F)cn2)n1)C(=O)c1cccc(F)c1-n1nccn1", "TESTED ON": "human orexin type 1 receptor (hOX1R) (Homo sapiens, UniProt O43613)", "RESULT": "5.5 nM"}
{"CHEMICAL STRUCTURE": "CCN(CCn1ccc(-c2ccc(F)cn2)n1)C(=O)c1c(F)cccc1-c1ncccn1", "TESTED ON": "human orexin type 1 receptor (hOX1R) (Homo sapiens, UniProt O43613)", "RESULT": "92.5 nM"}

State the recorded IC50 for this entry: Cc1ccc(-n2nccn2)c(C(=O)N(C)CCn2cc(-c3ccc(F)cn3)cn2)c1
17.9 nM

Recorded IC50 of CCN(CCn1cc(-c2ccc(F)cc2)cn1)C(=O)c1cc(C)ccc1-n1nccn1 , please.
2.3 nM

Fill in: IC50 of CCN(CCn1ccc(-c2cc(C(F)(F)F)ccn2)n1)C(=O)c1cc(C)ccc1-n1nccn1 is ___
21.9 nM

Any idea what its IC50 is? The molecule is CCN(CCn1ccc(-c2ccc(F)cn2)n1)C(=O)c1cc(C)ccc1-n1nccn1
1.5 nM

What measured IC50 goes with CCN(CCn1ccc(-c2ccc(F)cn2)n1)C(=O)c1cc(OC)ccc1-n1nccn1 ?
20 nM

Bench note: what IC50 did CCN(CCn1ccc(-c2ccc(F)cn2)n1)C(=O)c1cc(C)ccc1-c1ncccn1 show?
1.4 nM

What measured IC50 goes with CCN(CCn1ccc(-c2ccc(F)cn2)n1)C(=O)c1ccc(C)cc1-n1nccn1 ?
0.8 nM

What IC50 value was documented for this molecule, CCN(CCn1ccc(-c2ccc(F)cn2)n1)C(=O)c1cc(F)ccc1-n1nccn1 ?
7.2 nM

IC50 lookup needed for CCN(CCn1ccc(-c2ccc(F)c(F)c2)n1)C(=O)c1cc(F)ccc1-c1ncccn1 , thanks.
1.5 nM

Using the record for CCN(CCn1cc(-c2ccc(F)cn2)cn1)C(=O)c1cc(F)ccc1-n1nccn1 , report its IC50.
38 nM

Query: IC50; subject: CCN(CCn1ccc(-c2ccc(F)cc2)n1)C(=O)c1cc(C)ccc1-n1nccn1
0.9 nM

Bench note: what IC50 did CCN(CCn1ccc(-c2cccc(C(F)(F)F)n2)n1)C(=O)c1cc(F)ccc1-c1ncccn1 show?
22.9 nM

// lookup IC50 for CCN(CCn1cc(-c2ccccn2)cn1)C(=O)c1cc(C)ccc1-n1nccn1
10.5 nM

Can you share its IC50? I mean this molecule: Cc1ccc(-n2nccn2)c(C(=O)N(CCn2ccc(-c3ccc(F)cn3)n2)CC2CC2)c1
6.8 nM

* * *

Each entry below lists one item and its recorded pIC50 value.
# TESTED ON: UniProt O43614
# ASSAY OVERVIEW: Orexin receptor antagonistic activity, intracellular Ca2+ fluorescence (FDSS) in CHO cells expressing hOX2R
# PARTICULARS: CHO cells forced to express hOX2R; orexin-A analogue peptide ligand 3 nM; Fluo-4 maximum fluorescence; read-out: IC50 value OX2R
API: returns pIC50 as number; meaning -log10 of concentration in mol/L.

{"CHEMICAL STRUCTURE": "CCN(CCn1ccc(-c2ccccn2)n1)C(=O)c1cc(C)ccc1-n1nccn1", "TESTED ON": "UniProt O43614", "pIC50": 8.37}
{"CHEMICAL STRUCTURE": "Cc1ccc(-n2nccn2)c(C(=O)N(CCn2ccc(-c3ccc(F)cn3)n2)CC(F)F)c1", "TESTED ON": "UniProt O43614", "pIC50": 7.49}

Quick one: pIC50 of CCN(CCn1ccc(-c2cccc(C(F)(F)F)n2)n1)C(=O)c1ccccc1-c1ncccn1 ?
6.85
